Tested on: SF-268 CNS
testName: NCI tumour cell line growth inhibition, 48 h
propertyName: TGI

compound	dataValue
C=C1CN(Cc2ccccc2)[C@@H]2CCCCC[C@H](C#N)[C@H]12	> 100 µM
Cc1cc(C)nc(SC2=C(Nc3cccc(Cl)c3C)C(=O)N(Cc3ccccc3)C2=O)n1	> 160 µM
O=C(O)c1ccccc1/C=N/NC1=NCCCCN1	> 100 µM
COC(=O)[C@@]12OC[C@]34C([C@@H](O)C1O)[C@@]1(C)CC(=O)C(OC(=O)/C=C(/c5ccccc5)C(F)(F)F)=C(C)C1C[C@H]3OC(=O)[C@H](O)[C@H]42 (some centres undefined)	> 50 µM

Query: Given the entry CC(C)C(/C=C/c1ccc(Br)cc1)=N\NC(N)=O , what TGI was observed with SF-268 CNS?
Response: > 100 µM

Query: Lab note: need TGI for C=CCN1C(=O)CS/C1=N/NC(=O)C(O)(c1ccccc1)c1ccccc1 on SF-268 CNS, anyone have it?
Response: > 10 µM

Query: For the record O=C(NC(Nc1ccc(F)c(Cl)c1)(C(F)(F)F)C(F)(F)F)OCc1ccccc1 , what value of TGI is listed for SF-268 CNS?
Response: > 100 µM

Query: Request - read-out TGI | tested on SF-268 CNS | compound COCCOCC(=O)N(CCn1ccc(NC(c2ccccc2)(c2ccccc2)c2ccccc2)nc1=O)CCn1cnc2nc(N)[nH]c(=O)c21
Response: > 100 µM

Query: Which TGI is reported with SF-268 CNS for this entry: CC(C)NCCC(O)c1cc2ccccc2o1 (centres undefined) ?
Response: > 100 µM
